# methodNotes: Proportions of cis and trans at the photostationary state in DMSO from absorbance spectra (Ernst Fischer method)
# Assay type: physicochemical
# conditionDescription: 470 nm
%trans at the photostationary state values, listed per item
propertyName: %trans at the photostationary state

compound: COC(=O)c1ccc(-c2cccc(/N=N/c3ccc(OCC(O)C(C)(C)C)cc3C)c2)c(C)c1 (centres unmarked) [Compound 10d]
propertyName: %trans at the photostationary state
result: 70,18%

compound: COC(=O)c1ccc(-c2cccc(/N=N/c3ccc(OCC(O)C(C)(C)C)c(C)c3)c2)cc1 (centres unmarked) [Compound 10a]
propertyName: %trans at the photostationary state
result: 70,85%

compound: Cc1cc(OCC(O)C(C)(C)C)ccc1N=Nc1cccc(-c2ccc(C(=O)O)cc2)c1 (centres unmarked) [Compound 11b]
propertyName: %trans at the photostationary state
result: 68,70%

compound: Cc1cc(/N=N/c2cccc(-c3ccc(CO)cc3C)c2)ccc1OCC(O)C(C)(C)C (centres unmarked) [Compound 12c]
propertyName: %trans at the photostationary state
result: 71,05%

compound: Cc1cc(OCC(O)C(C)(C)C)ccc1/N=N/c1cccc(-c2ccc(CO)cc2)c1 (centres unmarked) [Compound 12b]
propertyName: %trans at the photostationary state
result: 70,39%

compound: Cc1cc(/N=N/c2cccc(-c3ccc(CO)cc3)c2)ccc1OCC(O)C(C)(C)C (centres unmarked) [Compound 12a]
propertyName: %trans at the photostationary state
result: 66,94%

compound: COC(=O)c1ccc(-c2cccc(/N=N/c3ccc(OCC(O)C(C)(C)C)c(C)c3)c2)c(C)c1 (centres unmarked) [Compound 10c]
propertyName: %trans at the photostationary state
result: 69,47%

compound: COC(=O)c1ccc(-c2cccc(/N=N/c3ccc(OCC(O)C(C)(C)C)cc3C)c2)cc1 (centres unmarked) [Compound 10b]
propertyName: %trans at the photostationary state
result: 65,11%

###

# methodNotes: Proportions of cis and trans at the photostationary state in DMSO from absorbance spectra (Ernst Fischer method)
# Type: physicochemical
# conditionDescription: 420 nm
propertyName: %cis at the photostationary state

compound: Cc1cc(/N=N/c2cccc(-c3ccc(C(=O)O)cc3)c2)ccc1OCC(O)C(C)(C)C (stereo not shown) [Compound 11a]
propertyName: %cis at the photostationary state
result: 58,09%

compound: Cc1cc(OCC(O)C(C)(C)C)ccc1N=Nc1cccc(-c2ccc(C(=O)O)cc2)c1 (stereo not shown) [Compound 11b]
propertyName: %cis at the photostationary state
result: 60,47%

compound: Cc1cc(OCC(O)C(C)(C)C)ccc1/N=N/c1cccc(-c2ccc(CO)cc2C)c1 (stereo not shown) [Compound 12d]
propertyName: %cis at the photostationary state
result: 60,13%

compound: COC(=O)c1ccc(-c2cccc(/N=N/c3ccc(OCC(O)C(C)(C)C)cc3C)c2)cc1 (stereo not shown) [Compound 10b]
propertyName: %cis at the photostationary state
result: 62,72%

###

# methodNotes: Proportions of cis and trans at the photostationary state in DMSO from absorbance spectra (Ernst Fischer method)
# Format: physicochemical
# conditionDescription: 500 nm
# Experimental: 2. Photochemical characterization. A 50 µM solution of each compound in DMSO was dispensed into a transparent 96-well plate (200 µL per well). The absorption spectra were recorded from 300 to 600 nm with 2 nm fixed intervals using a Tecan Spark 20M Multimode microplate reader. Initial measurements were performed in the dark, followed by spectra acquired immediately after each 3 min period of light irradiation at different wavelengths using 96-well LED array plates (LEDA Teleopto). […]

molecule: Cc1cc(OCC(O)C(C)(C)C)ccc1N=Nc1cccc(-c2ccc(C(=O)O)cc2)c1 (centres unmarked) [Compound 11b]
%cis at the photostationary state: 32,81%

molecule: COC(=O)c1ccc(-c2cccc(/N=N/c3ccc(OCC(O)C(C)(C)C)cc3C)c2)c(C)c1 (centres unmarked) [Compound 10d]
%cis at the photostationary state: 25,21%

molecule: Cc1cc(/N=N/c2cccc(-c3ccc(CO)cc3)c2)ccc1OCC(O)C(C)(C)C (centres unmarked) [Compound 12a]
%cis at the photostationary state: 34,03%

molecule: COC(=O)c1ccc(-c2cccc(/N=N/c3ccc(OCC(O)C(C)(C)C)c(C)c3)c2)cc1 (centres unmarked) [Compound 10a]
%cis at the photostationary state: 25,54%

molecule: Cc1cc(OCC(O)C(C)(C)C)ccc1/N=N/c1cccc(-c2ccc(CO)cc2C)c1 (centres unmarked) [Compound 12d]
%cis at the photostationary state: 33,18%

molecule: Cc1cc(OCC(O)C(C)(C)C)ccc1/N=N/c1cccc(-c2ccc(C(=O)O)cc2C)c1 (centres unmarked) [Compound 11d]
%cis at the photostationary state: 29,74%

molecule: COC(=O)c1ccc(-c2cccc(/N=N/c3ccc(OCC(O)C(C)(C)C)cc3C)c2)cc1 (centres unmarked) [Compound 10b]
%cis at the photostationary state: 35,65%

molecule: Cc1cc(/N=N/c2cccc(-c3ccc(C(=O)O)cc3)c2)ccc1OCC(O)C(C)(C)C (centres unmarked) [Compound 11a]
%cis at the photostationary state: 26,59%
